Reference source: patent US20220073617A1

Biological target: T1, monovalent hVISTA-ECD (human VISTA extracellular domain with His tail) (human, UniProt Q9H7M9 33-193)
T1 construct: analyte flowed over captured antibody; also called huVISTA-His
T1 sequence (Q9H7M9 other isoform, or with tags, fused parts or gaps limits assumed): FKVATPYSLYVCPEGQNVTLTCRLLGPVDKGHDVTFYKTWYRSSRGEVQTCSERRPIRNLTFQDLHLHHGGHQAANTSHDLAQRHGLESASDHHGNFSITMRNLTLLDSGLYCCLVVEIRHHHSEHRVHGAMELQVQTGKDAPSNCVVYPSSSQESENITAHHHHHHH
Assay: SPR, pH 6.0
quantity: kd improvement vs parent (fold)
State just the number; it will be interpreted in fold.

P1-065333 (41F11_VH_T28P/Y50W/S55E/L96E/Y100E VK_A64G) (antibody, human IgG1, kappa, V domains shown, IgG1.3; also called P1-065333-1; VISTA.4 pH-independent progeny) VH: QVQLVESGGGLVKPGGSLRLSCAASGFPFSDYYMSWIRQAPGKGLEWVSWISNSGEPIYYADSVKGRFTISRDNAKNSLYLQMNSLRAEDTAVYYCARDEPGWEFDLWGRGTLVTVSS VL: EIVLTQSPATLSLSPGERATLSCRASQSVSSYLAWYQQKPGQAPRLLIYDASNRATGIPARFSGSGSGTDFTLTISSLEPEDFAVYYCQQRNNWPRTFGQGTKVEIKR yielded kd improvement vs parent of 81.7

P1-063001 (41F11_LC_Mutant: V29D/A64G/R91T) (antibody, V domains shown, also called P1-063001-5; P1-063001-6) VH: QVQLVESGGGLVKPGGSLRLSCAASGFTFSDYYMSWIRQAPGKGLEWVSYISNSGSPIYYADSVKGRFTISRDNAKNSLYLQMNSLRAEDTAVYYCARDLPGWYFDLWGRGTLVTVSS VL: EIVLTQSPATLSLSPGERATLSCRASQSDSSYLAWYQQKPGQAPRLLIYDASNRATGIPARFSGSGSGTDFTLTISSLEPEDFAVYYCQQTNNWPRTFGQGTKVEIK yielded kd improvement vs parent of 81.7

P1-065064 (41F11_LC_Mutant: V29D/A64G/R91T) (antibody, V domains shown, Same printed description as P1-063001 under another ID; also called P1-065064-1) VH: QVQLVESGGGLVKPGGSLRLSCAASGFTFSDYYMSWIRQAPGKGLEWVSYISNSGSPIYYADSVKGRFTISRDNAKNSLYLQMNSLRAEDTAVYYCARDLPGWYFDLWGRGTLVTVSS VL: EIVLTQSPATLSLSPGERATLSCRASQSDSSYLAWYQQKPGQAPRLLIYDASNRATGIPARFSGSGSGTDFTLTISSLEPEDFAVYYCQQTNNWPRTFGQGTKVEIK yielded kd improvement vs parent of 80.5
